# Tested on: HS 578T breast
# measurement.protocol: NCI tumour cell line growth inhibition, 48 h
test.readout: TGI (µM)
Write the value in µM as a bare number.

Consider the worked cases shown below.
compound	unit.info	TGI
C[C@@]12CC[C@@H](O)C[C@@H]1CC[C@H]1[C@H]2CC[C@@]2(C)[C@H](c3ccc(=O)oc3)CC[C@@]12O	µM	0.0351
C/C=C\C1OC1(C)c1cc(=O)c2c(C)cc3c(c2o1)C(=O)c1c(O)c(C2CC(C)(N(C)C)C(OC(C)=O)C(C)O2)cc(C2CC(N(C)C)C(O)C(C)O2)c1C3=O (configuration not stated)	µM	0.0223
COc1cccc(C(=O)NNc2nc(Cl)nc(N3CCN(C(c4ccccc4)c4ccccc4)CC3)n2)c1	µM	4.9

Input: Provide value of TGI for this record tested with HS 578T breast: O=[N+]([O-])C(C(Cl)=C(Cl)Cl)=C(N1CCCCC1)N1CCCCC1
Output: 70.8
